# Measurement Target: DYRK2 (Homo sapiens, UniProt Q92630)
# Construct: purchased Reaction Biology Corporation (assay service)
# Sequence (Q92630 1-601): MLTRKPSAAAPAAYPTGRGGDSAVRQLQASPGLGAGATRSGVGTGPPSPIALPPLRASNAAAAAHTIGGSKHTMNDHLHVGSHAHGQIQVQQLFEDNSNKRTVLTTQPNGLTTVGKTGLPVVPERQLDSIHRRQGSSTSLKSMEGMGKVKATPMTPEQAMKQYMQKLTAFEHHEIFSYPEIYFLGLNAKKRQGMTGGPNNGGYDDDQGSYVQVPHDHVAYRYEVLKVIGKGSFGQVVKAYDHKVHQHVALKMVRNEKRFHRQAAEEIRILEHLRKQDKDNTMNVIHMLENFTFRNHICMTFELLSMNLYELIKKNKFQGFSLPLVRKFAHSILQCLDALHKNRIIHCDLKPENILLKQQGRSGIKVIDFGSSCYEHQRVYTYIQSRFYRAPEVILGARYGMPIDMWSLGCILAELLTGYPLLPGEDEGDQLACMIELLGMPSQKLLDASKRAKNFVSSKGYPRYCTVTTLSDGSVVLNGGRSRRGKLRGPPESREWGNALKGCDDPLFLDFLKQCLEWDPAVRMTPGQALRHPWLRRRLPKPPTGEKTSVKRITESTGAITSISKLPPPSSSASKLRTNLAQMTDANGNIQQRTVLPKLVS
# Assay Name: DYRKs kinase activity assay (33P-ATP, DYRKtide substrate): DYRK2
# Assay type: biochemical
# Protocol Conditions: DYRK2 kinase; Conc. 0.123457 µM; duplicate values
Endpoint Name: % Inhibition (%)
Record the value in %, omitting the unit from your answer.

The cases that follow already have their % Inhibition on record.
Compound | % Inhibition [%]
CCN1CCN(C(=O)c2cnc(Nc3ncc(F)c(-c4ccc5ncsc5c4)n3)nc2)CC1 [Compound 22] | 26.76
CCN1CCN(Cc2ccc(Nc3ncc(F)c(-c4ccc5ncsc5c4)n3)nc2)CC1 [Compound 16] | 48.52
CC(C)(C)OC(=O)N1CCN(Cc2ccc(Nc3ncc(F)c(-c4ccc5ncsc5c4)n3)nc2)CC1 [Compound 17] | 18.48
Cc1nc2ccc(-c3nc(Nc4ccc(C(=O)N5CCNCC5)cn4)ncc3F)cc2s1.Cl [Compound 24] | 75.45
CC(C)N1CCN(Cc2ccc(Nc3ncc(F)c(-c4ccc5ncsc5c4)n3)nc2)CC1 [Compound 12] | 33.57
CCN1CCN(C(=O)c2ccc(Nc3ncc(F)c(-c4ccc5nc(C)sc5c4)n3)nc2)CC1 [Compound 23] | 70.45
Cl.Fc1cnc(Nc2ccc(N3CCNCC3)cn2)nc1-c1ccc2ncsc2c1 [Compound 21] | 56.81

Please find the next compound below.
What % Inhibition value was documented for this compound, Cl.Fc1cnc(Nc2ccc(CN3CCNCC3)cn2)nc1-c1ccc2ncsc2c1 [Compound 18] ?
36.98

----------
# Measurement Target: DYRK2 (Homo sapiens)
# Construct: purchased Reaction Biology Corporation (assay service)
# Assay Name: DYRKs kinase activity assay (33P-ATP, DYRKtide substrate): DYRK2
# Type: biochemical
# Protocol Conditions: DYRK2 kinase; Conc. 0.0137174 µM; duplicate values; read-out: % Inhibition
Endpoint Name: inhibition at 0.0137174 µM (%)
Record the value in %, omitting the unit from your answer.

The cases that follow already have their inhibition at 0.0137174 µM on record.
Item Smiles | inhibition at 0.0137174 µM [%]
CCN1CCN(C(=O)c2ccc(Nc3ncc(F)c(-c4ccc5nc(C)sc5c4)n3)nc2)CC1 | 41.4
CC(C)N1CCN(Cc2ccc(Nc3ncc(F)c(-c4ccc5ncsc5c4)n3)nc2)CC1 | 8.64

What inhibition at 0.0137174 µM value was documented for this molecule, CC(C)(C)OC(=O)N1CCN(Cc2ccc(Nc3ncc(F)c(-c4ccc5ncsc5c4)n3)nc2)CC1 ?
0.53

What inhibition at 0.0137174 µM value was documented for this molecule, CCN1CCN(Cc2ccc(Nc3ncc(F)c(-c4ccc5ncsc5c4)n3)nc2)CC1 ?
6.53

----------
# Assay Name: Pharmacokinetic profiles
# Assay type: in vivo
# Protocol Conditions: SD, rat, serum, iv, 1 mg/kg, SD rats, IV 1 mg/kg, 0.033 h; read-out: Con. (individual rats NO.1-3)
Endpoint Name: concentration at 0.033 h (ng/mL)
Record the value in ng/mL, omitting the unit from your answer.

What concentration at 0.033 h value was documented for this molecule, CCN1CCN(C(=O)c2ccc(Nc3ncc(F)c(-c4ccc5nc(N(C)C)sc5c4)n3)nc2)CC1 [YK-2-69] ?
1090

----------
# Assay Name: Pharmacokinetic profiles
# Type: in vivo
# Protocol Conditions: SD, rat, serum, iv, 1 mg/kg, SD rats, IV 1 mg/kg, 4 h; read-out: Con. (individual rats NO.1-3)
Endpoint Name: concentration at 4 h
Could you kindly put the unit after your number?

What concentration at 4 h value was documented for this molecule, CCN1CCN(C(=O)c2ccc(Nc3ncc(F)c(-c4ccc5nc(N(C)C)sc5c4)n3)nc2)CC1 [YK-2-69] ?
97 ng/mL

----------
# Measurement Target: DYRK4 (Homo sapiens)
# Sequence (Q9NR20 whole entry): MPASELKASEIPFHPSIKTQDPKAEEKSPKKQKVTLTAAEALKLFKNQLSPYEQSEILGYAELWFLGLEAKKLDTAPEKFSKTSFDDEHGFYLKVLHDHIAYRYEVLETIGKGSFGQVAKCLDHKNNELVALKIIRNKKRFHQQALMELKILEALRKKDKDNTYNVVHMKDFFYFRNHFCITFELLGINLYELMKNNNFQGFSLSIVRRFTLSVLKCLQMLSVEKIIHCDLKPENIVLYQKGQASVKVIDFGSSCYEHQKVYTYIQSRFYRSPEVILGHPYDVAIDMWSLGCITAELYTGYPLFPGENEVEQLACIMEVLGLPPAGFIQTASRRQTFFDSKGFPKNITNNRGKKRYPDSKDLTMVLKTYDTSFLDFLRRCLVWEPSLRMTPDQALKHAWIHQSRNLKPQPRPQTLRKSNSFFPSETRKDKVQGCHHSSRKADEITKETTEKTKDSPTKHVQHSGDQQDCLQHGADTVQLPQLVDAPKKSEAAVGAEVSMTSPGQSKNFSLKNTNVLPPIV
pIC50: −log10 of the molar value.
Endpoint Name: pIC50

What pIC50 value was documented for this compound, CCN1CCN(C(=O)c2ccc(Nc3ncc(F)c(-c4ccc5nc(N(C)C)sc5c4)n3)nc2)CC1 ?
< 6.00

----------
Measured inhibition at 0.00457247 µM values are reported for all entries that follow.
# Measurement Target: DYRK2 (Homo sapiens, UniProt Q92630)
# Construct: purchased Reaction Biology Corporation (assay service)
# Sequence (Q92630 1-601): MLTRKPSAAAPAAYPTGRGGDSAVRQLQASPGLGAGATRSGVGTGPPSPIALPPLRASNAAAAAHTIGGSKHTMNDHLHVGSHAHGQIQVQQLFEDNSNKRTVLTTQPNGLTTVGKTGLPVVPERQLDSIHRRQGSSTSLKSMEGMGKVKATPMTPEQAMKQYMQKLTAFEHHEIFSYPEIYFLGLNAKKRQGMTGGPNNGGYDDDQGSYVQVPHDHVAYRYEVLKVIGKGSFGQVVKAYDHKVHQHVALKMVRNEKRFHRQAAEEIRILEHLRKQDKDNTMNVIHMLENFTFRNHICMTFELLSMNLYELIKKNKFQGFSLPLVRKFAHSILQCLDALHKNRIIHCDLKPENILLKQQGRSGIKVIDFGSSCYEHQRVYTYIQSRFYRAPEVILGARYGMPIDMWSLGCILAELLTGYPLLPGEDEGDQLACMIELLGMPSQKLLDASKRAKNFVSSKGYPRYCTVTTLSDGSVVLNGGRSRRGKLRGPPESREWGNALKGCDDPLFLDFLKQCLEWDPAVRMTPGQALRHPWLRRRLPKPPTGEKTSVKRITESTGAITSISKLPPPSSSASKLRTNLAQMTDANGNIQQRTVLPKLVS
# Assay Name: DYRKs kinase activity assay (33P-ATP, DYRKtide substrate): DYRK2
# Format: biochemical
# Protocol Conditions: DYRK2 kinase; Conc. 0.00457247 µM; duplicate values
Record the value in %, omitting the unit from your answer.

The cases that follow already have their inhibition at 0.00457247 µM on record.
Compound | Result Value
CCN1CCN(C(=O)c2cnc(Nc3ncc(F)c(-c4ccc5ncsc5c4)n3)nc2)CC1 [Compound 22] | 2.31
Cc1nc2ccc(-c3nc(Nc4ccc(C(=O)N5CCNCC5)cn4)ncc3F)cc2s1.Cl [Compound 24] | 19.2
Cl.Fc1cnc(Nc2ccc(CN3CCNCC3)cn2)nc1-c1ccc2ncsc2c1 [Compound 18] | -2.27
CCN1CCN(C(=O)c2ccc(Nc3ncc(F)c(-c4ccc5nc(C)sc5c4)n3)nc2)CC1 [Compound 23] | 32.2

Please find the next compound below.
What inhibition at 0.00457247 µM value was documented for this compound, Cl.Fc1cnc(Nc2ccc(N3CCNCC3)cn2)nc1-c1ccc2ncsc2c1 [Compound 21] ?
13.8

----------
# Measurement Target: DYRK2 (Homo sapiens, UniProt Q92630)
# Construct: purchased Reaction Biology Corporation (assay service)
# Assay Name: DYRKs kinase activity assay (33P-ATP, DYRKtide substrate): DYRK2
# Type: biochemical
# Protocol Conditions: DYRK2 kinase; Conc. 0.00152416 µM; duplicate values
Measured % Inhibition values are reported for all entries that follow.

Item Smiles | % Inhibition
CC(C)N1CCN(Cc2ccc(Nc3ncc(F)c(-c4ccc5ncsc5c4)n3)nc2)CC1 | 4.49%
CCN1CCN(C(=O)c2ccc(Nc3nc(-c4ccc5nc(N(C)C)sc5c4)c4sccc4n3)nc2)CC1 | 1.48%
Cl.Fc1cnc(Nc2ccc(N3CCNCC3)cn2)nc1-c1ccc2ncsc2c1 | 8.33%

Please find the next compound below.
What % Inhibition value was documented for this compound, CCN1CCN(C(=O)c2ccc(Nc3ncc(F)c(-c4ccc5nc(C)sc5c4)n3)nc2)CC1 ?
18.47%

----------
# Assay Name: Pharmacokinetic profiles
# Format: in vivo
# Protocol Conditions: rat, serum; SD rats, IV 1 mg/kg
Endpoint Name: clearance (mL/min/kg)
Record the value in mL/min/kg, omitting the unit from your answer.

What clearance value was documented for this compound, CCN1CCN(C(=O)c2ccc(Nc3ncc(F)c(-c4ccc5nc(N(C)C)sc5c4)n3)nc2)CC1 ?
11.2
